Source listed as patent US6638967B2.

pKi, human histamine H3 receptor (Homo sapiens, UniProt Q9Y5N1), per-entry values.
Numbers only, as −log10 of the molar value.

Use these answered entries as a reference point.
{"compound": "c1cc(CN2CCCC2)c(-c2ccc(CN3CCCC3)cc2)s1 [Example 4]", "pKi": 8.05}
{"compound": "c1cc(-c2ccc(CN3CCCC3)s2)ccc1CN1CCCC1 [Example 1]", "pKi": 8.05}
{"compound": "O=Cc1ccc(-c2ccc(CN3CCCC3)cc2)cc1 [Example 27]", "pKi": 8.06}
{"compound": "c1cc(-c2ccc(CN3CCCC3)o2)ccc1CN1CCCC1 [Example 2]", "pKi": 9.39}

Report pKi for each item below.
1. C/N=C(\NC)SCc1ccc(Oc2ccc(CS/C(=N/C)NC)cc2)cc1 [Example 12]
2. c1cc(Oc2ccc(CNC3=NCCN3)cc2)ccc1CNC1=NCCN1 [Example 17]
3. c1cc(N(CCCN2CCCCC2)c2ccc(CN3CCCC3)cc2)ccc1CN1CCCC1 [Example 24]
4. CN(C)CCN(c1ccc(CN2CCCC2)cc1)c1ccc(CN2CCCC2)cc1 [Example 25]
5. c1cc(CCN2CCCC2)ccc1CCc1ccc(CCN2CCCC2)cc1 [Example 29]

**Result**
[7.07, 6.46, 8.46, 6.34, 7.58]
